Data credit: the supplement of paper PMC11208160

Recorded recombinant UMI read abundance (log10) by entry
Assay: recombinant UMI read abundance after kanamycin selection (control-corrected) (log10(CPM+1)); higher = more efficient recombination; extreme values may be limits of the assay; sequences stand for … in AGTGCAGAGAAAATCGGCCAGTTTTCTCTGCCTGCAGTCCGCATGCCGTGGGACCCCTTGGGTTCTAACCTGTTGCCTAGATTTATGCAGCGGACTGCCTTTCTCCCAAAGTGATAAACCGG…AGGTTGGTTTCACT; site = the 11-nt donor;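 also: IS621 bridge recombinase in Escherichia coli cells against a fixed T5 target plasmid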
Field format: numeric only.

Ask: Any idea what its recombinant UMI read abundance (log10) is? The sequence is TGGCCGTCATGGACCGGTTTTCCCGGTAATCCGTATTTGGC (site TGGCCGACTGC)
Result: 0

Ask: Param item = GCGCCCACATGGACCGGTTTTCCCGGTAATCCGTATTTGTG (site GCGCCCACTCA) ; retrieve measured recombinant UMI read abundance (log10).
Result: 0.0198
